src = the supplement of paper PMC10567573

B1: TNNI2 (parent)
chain: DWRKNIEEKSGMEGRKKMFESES

variants of: B1; test: protein stability index of a GFP-peptide fusion (GPS, HEK-293T) (PSI 1-6); higher = more stable; details: c terminus: native;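 note: lentivirally expressed fusions sorted by FACS into six bins by GFP to DsRed ratio, PSI derived from sequencing read proportions per bin multiplied by bin number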
Rule: protein stability index under 3 gives Not fulfilled, otherwise Fulfilled.

[
  {
    "VARIANT_ANNOTATION": "K9D",
    "ASSIGNED_LABEL": "Not fulfilled"
  }
]

Threshold query (protein stability index >= 3) on `E20P` Fulfilled

Further, for `G14D` ? Not fulfilled

Same again, this time with `S21M` Fulfilled

Subsequent entry: `E7S` Not fulfilled

Next up: `I6Q` Fulfilled

Consider next the variant `D1M` in the same way. Not fulfilled

Next record, please: `E7G` Not fulfilled

Also `S21P` , if possible. Not fulfilled

Try `K4I` next. Not fulfilled

Similarly, `K16E` ? Not fulfilled

Try `F19Q` next. Fulfilled

Again, but for `E8N` Fulfilled

Try this variant next: `K17C` Not fulfilled

// repeat for `R3Y` and report Not fulfilled

Same read-out for `F19M` ? Not fulfilled
